- Tested on: biotinyl-Leu-oxazolone
- measurement.description: self-aminoacylation, catalytic enhancement (BLO) (fold over background); higher = more active; k-Seq, kA / k0A0; sequences stand for … in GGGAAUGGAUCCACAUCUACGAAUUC…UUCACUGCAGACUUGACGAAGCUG
Variants at the floor of the assay were thinned out.
Please enter yes where self-aminoacylation is greater than or equal to 2, and no where it is lower.

Please indicate if the recorded self-aminoacylation for CCACACUGCAAGCAAUCGGUA [Fam1B.1 aminoacylation ribozyme variant] meets or exceeds 2.
yes

Quick one: AUUCACCUAGGUCCUCGAGUG [Fam2.2 aminoacylation ribozyme variant]
yes

Quick one: CCACACUUCAAUCAAUCGGCC [Fam1B.1 aminoacylation ribozyme variant]
yes

Quick one: AUUCACAUCGGUCAUCGGGUG [Fam2.2 aminoacylation ribozyme variant]
yes

Quick one: AUUCACCUCGGUCAGCGGGUG [Fam2.2 aminoacylation ribozyme variant]
yes

Quick one: CCGCACUUCAAGCAAUCGGUU [Fam1B.1 aminoacylation ribozyme variant]
yes

Quick one: CAACACUUCAAGCUAUCGGUC [Fam1B.1 aminoacylation ribozyme variant]
no

Quick one: AUUCACCUAGGUCGUCGAGUG [Fam2.2 aminoacylation ribozyme variant]
no
